Listed here: items and their measured sensor-assay potency score (higher = more potent).
# target.of.assay: KLK5; also: reference of the scale not given here
# assay.protocol: pooled miR-30 sensor sort-seq; sequence = guide strand
# particulars: shRNA
reported.endpoint: sensor-assay potency score (higher = more potent)

sequence_content=TCTCGGGTAAGCATCCTCGCAC observed_value=-0.337
sequence_content=TTGATGATGCGGCTGCTGCTGT observed_value=-0.719
sequence_content=TTGATGGGTCTGACATCTTTAG observed_value=-1.51
sequence_content=TTGGGCCTTAGCAACAGCGCGG observed_value=-0.877
sequence_content=TAGAGAGACACGGTCAGCCCAA observed_value=0.0597
sequence_content=TTCGTGTAGACACCCGGTCTGT observed_value=-0.664
sequence_content=TTTTCTGACTTAGCACGCTGAT observed_value=-0.837
sequence_content=ACTCTGAAAACTTTCTTCCTGC observed_value=-0.332
